The measured values listed here are drawn from patent US20240261258A1.

# assay protocol: RTX plasma concentrations after nerve block or local application
# Assay type: in vivo, dog
# conditions: female, beagle, dog, plasma, 6.25 μg, Group 2 Low Dose, 6.25 μg total F/Sc nerve block; 3 h; dogs 2561, 3743, 4681, 5686 in c3-c6
measured metric: concentration at 3 h (ng/mL)
Give bare numbers, in ng/mL.

Q: Report concentration at 3 h for C=C(C)[C@]12C[C@@H](C)[C@@]34O[C@](Cc5ccccc5)(O[C@@H]1[C@@H]3C=C(COC(=O)Cc1ccc(O)c(OC)c1)C[C@]1(O)C(=O)C(C)=C[C@@H]41)O2 [RTX, resiniferatoxin] please.
Result: 0.0847

====

# assay protocol: RTX plasma concentrations after nerve block or local application
# Assay type: in vivo, dog
# conditions: female, beagle, dog, plasma, 25 μg, Group 1 High Dose, 25 μg total F/Sc nerve block; 15 min; dogs 0271, 2968, 3837, 5635 in c3-c6
measured metric: concentration at 15 min (ng/mL)
Answers are plain numbers, in ng/mL.

Q: Report concentration at 15 min for C=C(C)[C@]12C[C@@H](C)[C@@]34O[C@](Cc5ccccc5)(O[C@@H]1[C@@H]3C=C(COC(=O)Cc1ccc(O)c(OC)c1)C[C@]1(O)C(=O)C(C)=C[C@@H]41)O2 please.
Result: 0.0964

====

# assay protocol: RTX plasma concentrations after nerve block or local application
# Assay type: in vivo, dog
# conditions: female, beagle, dog, plasma, 6.25 μg, Group 2 Low Dose, 6.25 μg total F/Sc nerve block; 2 h; dogs 2561, 3743, 4681, 5686 in c3-c6
measured metric: concentration at 2 h (ng/mL)
Answers are plain numbers, in ng/mL.

Q: Report concentration at 2 h for C=C(C)[C@]12C[C@@H](C)[C@@]34O[C@](Cc5ccccc5)(O[C@@H]1[C@@H]3C=C(COC(=O)Cc1ccc(O)c(OC)c1)C[C@]1(O)C(=O)C(C)=C[C@@H]41)O2 please.
Result: 0.0607

====

# assay protocol: RTX plasma concentrations after nerve block or local application
# Assay type: in vivo, dog
# conditions: female, beagle, dog, plasma, 25 μg, Group 1 High Dose, 25 μg total F/Sc nerve block; 6 h; dogs 0271, 2968, 3837, 5635 in c3-c6
measured metric: concentration at 6 h (ng/mL)
One number for each entry, in ng/mL.

Q: Report concentration at 6 h for C=C(C)[C@]12C[C@@H](C)[C@@]34O[C@](Cc5ccccc5)(O[C@@H]1[C@@H]3C=C(COC(=O)Cc1ccc(O)c(OC)c1)C[C@]1(O)C(=O)C(C)=C[C@@H]41)O2 [RTX, resiniferatoxin] please.
Result: 0.105

====

# assay protocol: RTX plasma concentrations after nerve block or local application
# Format: in vivo, dog
# conditions: female, beagle, dog, plasma, 25 μg, Group 1 High Dose, 25 μg total F/Sc nerve block; 0 min; dogs 0271, 2968, 3837, 5635 in c3-c6
measured metric: concentration at 0 min
Respond with the figure and its unit, in that order.

Q: Report concentration at 0 min for C=C(C)[C@]12C[C@@H](C)[C@@]34O[C@](Cc5ccccc5)(O[C@@H]1[C@@H]3C=C(COC(=O)Cc1ccc(O)c(OC)c1)C[C@]1(O)C(=O)C(C)=C[C@@H]41)O2 [RTX, resiniferatoxin] please.
Result: 0.397 ng/mL

====

# assay protocol: RTX plasma concentrations after nerve block or local application
# Format: in vivo, dog
# conditions: female, beagle, dog, plasma, 25 μg, Group 1 High Dose, 25 μg total F/Sc nerve block; 8 h; dogs 0271, 2968, 3837, 5635 in c3-c6
measured metric: concentration at 8 h (ng/mL)
One number for each entry, in ng/mL.

Q: Report concentration at 8 h for C=C(C)[C@]12C[C@@H](C)[C@@]34O[C@](Cc5ccccc5)(O[C@@H]1[C@@H]3C=C(COC(=O)Cc1ccc(O)c(OC)c1)C[C@]1(O)C(=O)C(C)=C[C@@H]41)O2 please.
Result: 0.0656

====

# assay protocol: RTX plasma concentrations after nerve block or local application
# Type: in vivo, dog
# conditions: female, beagle, dog, plasma, 6.25 μg, Group 2 Low Dose, 6.25 μg total F/Sc nerve block; 90 min; dogs 2561, 3743, 4681, 5686 in c3-c6
measured metric: concentration at 90 min (ng/mL)
One number for each entry, in ng/mL.

Q: Report concentration at 90 min for C=C(C)[C@]12C[C@@H](C)[C@@]34O[C@](Cc5ccccc5)(O[C@@H]1[C@@H]3C=C(COC(=O)Cc1ccc(O)c(OC)c1)C[C@]1(O)C(=O)C(C)=C[C@@H]41)O2 [RTX, resiniferatoxin] please.
Result: 0.085
